Attribution: patent US20070202552A1

tested.system: human IGF-1 (human) (UniProt P05019)
Sequence (P05019 49-118 limits assumed): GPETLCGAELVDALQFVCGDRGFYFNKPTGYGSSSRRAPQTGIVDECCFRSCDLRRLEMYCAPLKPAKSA
method.description: specificity phage ELISA

| binder | ELISA signal at 450 nm |
| --- | --- |
| G40 (Fab, V domains shown) VH: EVQLVESGGGLVQPGGSLRLSCAASGFSIWWSWIHWVRQAPGKGLEWVASISPSSGWTSYADSVKGRFTISADTSKNTAYLQMNSLRAEDTAVYYCARWSSWGLDYWGQGTLVTVSS VL: DIQMTQSPSSLSASVGDRVTITCRASQDVNTAVAWYQQKPGKAPKLLIYSASSLYSGVPSRFSGSRSGTDFTLTISSLQPEDFATYYCQQWSWWPSTFGQGTKVEIK | 0.85 |
| G29 (Fab, V domains shown) VH: EVQLVESGGGLVQPGGSLRLSCAASGFSIWWSWIHWVRQAPGKGLEWVASISPSSGWTSYADSVKGRFTISADTSKNTAYLQMNSLRAEDTAVYYCARWWSSAIDYWGQGTLVTVSS VL: DIQMTQSPSSLSASVGDRVTITCRASQDVNTAVAWYQQKPGKAPKLLIYSASSLYSGVPSRFSGSRSGTDFTLTISSLQPEDFATYYCQQSWWWPWTFGQGTKVEIK | 0.32 |
| G35 (Fab, V domains shown) VH: EVQLVESGGGLVQPGGSLRLSCAASGFSISWSWIHWVRQAPGKGLEWVASIWPSSGWTSYADSVKGRFTISADTSKNTAYLQMNSLRAEDTAVYYCARWWSSALDYWGQGTLVTVSS VL: DIQMTQSPSSLSASVGDRVTITCRASQDVNTAVAWYQQKPGKAPKLLIYSASSLYSGVPSRFSGSRSGTDFTLTISSLQPEDFATYYCQQWWWWPSTFGQGTKVEIK | 0.25 |
